assay: Plasma and urine PK of verinurad in the presence of febuxostat; type: in vivo, human; details: human, plasma, oral, Median Tmax of verinurad, range over verinurad 2.5-20 mg with febuxostat 40 or 80 mg
Measured property: Tmax

Ask | Complete the entry with Tmax for CC(C)(Sc1ccncc1-c1ccc(C#N)c2ccccc12)C(=O)O
Reply | 2.5 to 4 h
